assayText: chemical genetic growth profiling, strain panel (AID 1159580);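 note: tested at 20 µM; growth read once vehicle control cultures reached saturation at 30 °C; 1 = growth at the plate median or of vehicle wells; lower values mean less growth of the strain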
assayContext: S. cerevisiae deletion strains, growth OD, locus YLR258W, strain gsy2
Screen size: about 5,500 compounds; about 2,000 (36%) were called active. Another 18% or so got no clear call; they are omitted. Cut-off read from the data, not from the text of the source: active = normalized growth mostly below about 0.91 (no sharp cut-off); inconclusive = no clear call, values can overlap the other calls; inactive = mostly above about 0.92. The list shows a part of the results.
Your answer must be one of the following: active, inactive

Task item: GET /call?item= Cc1ccc(C(=O)c2ccc(CC(=O)O)n2C)cc1 returns the recorded outcome of this test.
Reply: inactive

Task item: Record lookup: outcome of this test for CC12CCC3C(=CCc4cc(O)ccc43)C1CCC2=O (stereo unspecified) ?
Reply: inactive

Task item: Dear all, I need the recorded test outcome for COc1ccc2c(c1)OCC(Cc1ccc(OC)c(O)c1)C2=O (stereo unspecified) , thank you.
Reply: active

Task item: # lookup: test call for COc1ccc2c(c1)OCC(Cc1ccc(O)c(OC)c1)C2=O (stereo unspecified)
Reply: inactive

Task item: Call for entry C=NC(C(=O)NC1C(=O)N2C1SC(C)(C)C2C(=O)O)c1ccccc1 (stereo unspecified) :
Reply: inactive

Task item: Hi, sorry to bother you, what did the test record for Cc1cc(CC(=O)O)n(C)c1C(=O)c1ccc(Cl)cc1 ?
Reply: inactive

----------
I'd appreciate it if you could supply normalized growth values for the items below.
assayText: chemical genetic growth profiling, strain panel (AID 1159580);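 note: tested at 20 µM; growth read once vehicle control cultures reached saturation at 30 °C; 1 = growth at the plate median or of vehicle wells; lower values mean less growth of the strain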
assayContext: S. cerevisiae deletion strains, growth OD, locus YDL101C, strain DUN1, hits give low values
Among all 5,500 compounds or so, about 2,000 (36%) were called active. Not shown: some 18% with an inconclusive outcome. The list shows a part of the results.
# print the numeric value only

Task item: Give the measured normalized growth of O=C(Oc1ccc2ccccc2c1C1SCCS1)c1ccc([N+](=O)[O-])o1 .
Reply: 0.943

Task item: Quick check: normalized growth of Clc1ccc(COC(Cn2ccnc2)c2ccc(Cl)cc2Cl)cc1 (centres undefined) ?
Reply: 0.055

Task item: I'd like to know its normalized growth. The compound in question is Cc1noc(C)c1S(=O)(=O)Nc1csc(C(F)(F)F)c1-c1ccccc1
Reply: 0.97

Task item: What does the data say about its normalized growth? Entry: Cc1nn(-c2ccccc2)nc1-c1nnc(-c2ccc(Cl)cc2)o1
Reply: 0.995

Task item: Consider the compound shown here: O=S(=O)(NCCc1ccncc1)c1cc(C(F)(F)F)cc(C(F)(F)F)c1 What is its recorded normalized growth?
Reply: 0.966

Task item: // normalized growth lookup, key: CC(C)=CC1C(C(=O)OCc2cccc(Oc3ccccc3)c2)C1(C)C (centres undefined)
Reply: 0.997

Task item: Fill in: normalized growth of CCC(=O)OC1[C@@H]2CC3=C4CC(=O)O[C@@H](c5ccoc5)[C@]4(C)CCC3[C@@](C)(C2=O)[C@@H](CC(=O)OC)C1(C)C (some centres undefined) is ___
Reply: 1

Task item: Quick one: normalized growth for COC(=O)c1ccsc1N ?
Reply: 1.01

Task item: Recorded normalized growth for O=c1oc2ccccc2cc1O , please?
Reply: 1.01

Task item: Please look up its normalized growth: O=C(O)CCCCCCCC(=O)O
Reply: 0.981

Task item: Given NCCCCCC(=O)O , state its recorded normalized growth.
Reply: 1.01

Task item: I have this compound here, Clc1ccccc1-c1csc(-c2cccnc2)n1 , and I need its recorded normalized growth.
Reply: 0.913

Task item: Item under review: CC1[C@H](C)OC(=O)CC(O)CC(O)CC(O)CCC(O)C(O)C[C@]2(O)CC(O)C(C(=O)O)C(CC(OC3O[C@H](C)[C@@H](O)[C@H](N)[C@@H]3O)/C=C/C=C/C=C/C=C/CC/C=C/C=C/[C@H](C)[C@H]1O)O2 (some centres undefined) . Reported normalized growth?
Reply: 0.188

Task item: What normalized growth value was documented for this compound, CC1CCC(C(C)C)C(N(Cc2ccccc2)C(=O)c2ccccc2)C1 (centres undefined) ?
Reply: 0.974

Task item: # input compound: O=C1CCc2cccc3cccc1c23 ; wanted: its normalized growth
Reply: 0.932

Task item: What value of normalized growth has been reported for the following compound? FC(F)(F)Oc1ccccc1-c1nnc(-c2ccc(Cl)cc2)o1
Reply: 0.971

Task item: Please report the recorded normalized growth for NCCCC(=O)O .
Reply: 1.01

Task item: Reported normalized growth for CNc1ccc(C(=O)CC(O)CCC(C)C2OC(=O)CC(O)CC(=O)CC(O)CC(O)CC(O)CC(O)CC3(O)CC(O)C(C(=O)OC)C(CC(OC4OC(C)C(O)C(N)C4O)/C=C/C=C/C=C/C=C/C=C/C=C/C=C/C2C)O3)cc1 (centres undefined) : what is it?
Reply: 0.0651

Task item: # lookup: normalized growth of C[C@@H](Nc1ncnc2sc3c(c12)CCCC3)c1ccccc1
Reply: 0.945

----------
assayText: chemical genetic growth profiling, strain panel (AID 1159580);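 note: tested at 20 µM; growth read once vehicle control cultures reached saturation at 30 °C; 1 = growth at the plate median or of vehicle wells; lower values mean less growth of the strain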
assayContext: S. cerevisiae deletion strains, growth OD, locus YBR231C, strain swc5, hits give low values
Out of some 5,500 compounds screened, about 2,000 (36%) were called active. Inconclusive results (about 18%) are left out. The list shows a part of the results.
For each of the compounds below, state its normalized growth.
I only need the number, thanks.

Task item: # input compound: CC(=O)O[C@]1(C)CC[C@@]23CC1C(C)(C)[C@@H]2CC[C@H]3C ; wanted: its normalized growth
Reply: 0.998

Task item: I am curious: what normalized growth value has been reported for Clc1ccc(COC(Cn2ccnc2)c2ccc(Cl)cc2Cl)cc1 (configuration not stated) ?
Reply: 0.0645

Task item: Name the recorded normalized growth for O=C(O)CCC1NCC2CC1CN1CCCCC21 (configuration not stated) .
Reply: 0.986

Task item: I would be grateful if you could share the reported normalized growth for COc1ccc(CCC(=O)c2c(O)cc(O[C@@H]3O[C@H](CO)C(O)[C@H](O)C3O[C@@H]3O[C@@H](C)[C@H](O)[C@@H](O)[C@H]3O)cc2O)cc1O (some centres not stated) .
Reply: 1.03

Task item: Report normalized growth for O=c1[nH]c(=O)n(C2C[C@H](O)[C@@H](CO)O2)cc1C(F)(F)F (some centres not stated) please.
Reply: 0.976

Task item: Given COC(=O)[C@H](c1ccccc1Cl)N1CCc2sccc2C1 , state its recorded normalized growth.
Reply: 0.998

Task item: Given the entry CC(=O)O[C@H]1C[C@@]2(C)[C@@H](C[C@@H](O)C3[C@]2(C)CC[C@H]2[C@H](C)[C@H](O)CC[C@]32C)/C1=C(/CCC=C(C)C)C(=O)O (some centres not stated) , report its measured normalized growth.
Reply: 0.988

Task item: # normalized growth lookup, item NCC[C@@H](O)C(=O)N[C@@H]1C[C@H](N)[C@@H](O[C@H]2O[C@H](CN)[C@@H](O)[C@H](O)[C@H]2O)[C@H](O)[C@H]1O[C@H]1O[C@H](CO)[C@@H](O)[C@H](N)C1O (some centres not stated)
Reply: 1.04

Task item: Would you mind telling me what normalized growth value was observed for Cc1cc(/C=C/c2ccc3cc(N(C)C)ccc3[n+]2C)c(C)n1-c1ccccc1 ?
Reply: 0.74

Task item: Quick one: normalized growth for CC(=O)Oc1c2c(c(CC=C(C)C)c3c1C(=O)C1=C[C@@H]4CC5C(C)(C)OC(C/C=C(\C)C(=O)O)(C4=O)[C@@]15O3)OC(C)(CCC=C(C)C)C=C2 (some centres not stated) ?
Reply: 0.953

Task item: Quick check: normalized growth of CN1CCC[C@@H]1CCO[C@](C)(c1ccccc1)c1ccc(Cl)cc1 ?
Reply: 0.984

Task item: Give the measured normalized growth of Clc1ccc(COC(Cn2ccnc2)c2ccc(Cl)cc2Cl)c(Cl)c1 (configuration not stated) .
Reply: 0.0764

Task item: normalized growth for COP(=S)(OC)Oc1ccc(Sc2ccc(OP(=S)(OC)OC)cc2)cc1 ?
Reply: 1

Task item: Find the recorded normalized growth belonging to CCCn1c(=O)c2[nH]c(C3CCCC3)nc2n(CCC)c1=O and report it.
Reply: 0.984

Task item: Sample CC12CCCCC1(Br)[N+](=O)N2[O-] (configuration not stated) — what was its normalized growth?
Reply: 0.992

Task item: Any idea what normalized growth was measured for CN(C)C(=O)Oc1ccc[n+](C)c1 ?
Reply: 1.03

Task item: Which normalized growth is listed for CCCNC(=O)NS(=O)(=O)c1ccc(Cl)cc1 ?
Reply: 1.01

Task item: Given the compound Cc1cccc(C)c1NC(=O)C1CCCCN1C (configuration not stated) , what is its reported normalized growth?
Reply: 0.993

Task item: What value of normalized growth has been recorded for this entry: NC(N)=NCCCCN=C(N)N
Reply: 1

Task item: Fill in the blank: the reported normalized growth of Clc1ccc(C(c2ccccc2Cl)C(Cl)Cl)cc1 (configuration not stated) is ____.
Reply: 0.964

Task item: Requested read-out: normalized growth. Entry: COc1c(C)c2c(c(O)c1C/C=C(\C)CCC(=O)O)C(=O)OC2
Reply: 0.386

Task item: // normalized growth lookup, key: C=NC(C(=O)NC1C(=O)N2C1SC(C)(C)C2C(=O)O)c1ccccc1 (configuration not stated)
Reply: 1.02

Task item: For the compound FC(F)(F)c1cccc(N2CCNCC2)c1 , what normalized growth is on record?
Reply: 0.99

Task item: Dear colleague, I am looking for the recorded normalized growth of the following compound: C=C[C@@]1(C)CC(=O)[C@@]2(O)[C@](C)(O1)[C@@H](OC(C)=O)[C@@H](O)C1C(C)(C)CC[C@H](O)[C@@]12C (some centres not stated)
Reply: 1.01

Task item: // returns reported normalized growth for input CC1CCC(NC(=O)N(CCCl)N=O)CC1 (configuration not stated)
Reply: 0.755

Task item: Query: normalized growth; subject: CN[C@@H]1C(OC2[C@H](O[C@H]3[C@H](O)[C@@H](O)[C@H](N=C(N)N)[C@@H](O)[C@@H]3N=C(N)N)OC(C)[C@]2(O)CO)OC(CO)C(O)C1O (some centres not stated)
Reply: 1.01

Task item: Fill in: normalized growth of O=C(O)COc1ccc(Cl)cc1Cl is ___
Reply: 0.989

Task item: Item under review: COC(=O)/C(C)=C\CC12OC(C)(C)C3CC(C=C4C(=O)c5c(OC)c6c(c(CC=C(C)C)c5OC431)OC(C)(CCC=C(C)C)C=C6)C2=O (configuration not stated) . Reported normalized growth?
Reply: 1.03

Task item: Which normalized growth value belongs to Clc1ccccc1CN1CCc2sccc2C1 ?
Reply: 1.02

Task item: Requested read-out: normalized growth. Entry: Clc1ccc(CSC(Cn2ccnc2)c2ccc(Cl)cc2Cl)cc1 (configuration not stated)
Reply: 0.064

Task item: Could you tell me which normalized growth is on file for Cc1cc(CC(=O)O)n(C)c1C(=O)c1ccc(Cl)cc1 ?
Reply: 1.02

Task item: Looking for the measured normalized growth of CN(C/C=C/C#CC(C)(C)C)Cc1cccc2ccccc12 , can you help?
Reply: 0.423

Task item: Given COc1ccc2nc(S(=O)Cc3ncc(C)c(OC)c3C)[nH]c2c1 (configuration not stated) , state its recorded normalized growth.
Reply: 0.953

Task item: Which measured normalized growth value corresponds to NC(N)=NCCN1CCCCCCC1 ?
Reply: 0.999

Task item: Sample C[C@@H]1CC[C@H]2C(C)(C)C3CC12CC[C@@]3(C)O (some centres not stated) — what was its normalized growth?
Reply: 0.862

Task item: Item under review: O=NN(CCCl)C(=O)NCCCl . Reported normalized growth?
Reply: 0.604

Task item: Fill in the blank: the reported normalized growth of CC1(C)N([O-])[N+](=O)C1(C)Br (configuration not stated) is ____.
Reply: 0.988
